Source: patent US20130005743A1

Molecular target: human α7 receptor (Homo sapiens)
Sequence (P36544 23-502): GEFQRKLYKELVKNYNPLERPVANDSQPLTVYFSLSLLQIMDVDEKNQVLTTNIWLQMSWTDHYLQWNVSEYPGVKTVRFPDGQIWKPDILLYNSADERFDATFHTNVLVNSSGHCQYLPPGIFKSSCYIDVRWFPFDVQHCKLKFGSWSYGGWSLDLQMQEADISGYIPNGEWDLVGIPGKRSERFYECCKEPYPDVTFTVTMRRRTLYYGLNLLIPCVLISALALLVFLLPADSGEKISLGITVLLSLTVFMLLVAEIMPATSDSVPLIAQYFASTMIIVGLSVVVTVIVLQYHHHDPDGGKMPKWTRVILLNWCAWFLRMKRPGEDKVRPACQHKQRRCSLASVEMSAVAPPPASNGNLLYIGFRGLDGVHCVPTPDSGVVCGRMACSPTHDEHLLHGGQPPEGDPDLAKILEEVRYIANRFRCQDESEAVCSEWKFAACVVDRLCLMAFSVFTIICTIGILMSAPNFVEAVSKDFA
Assay: α7 NNR flux assay (FDSS Ca assay, positive allosteric modulation of acetylcholine response)
Conditions: human α7 receptor stably expressed in rat GH4C1 cells; acetylcholine 20 μM; % modulation relative to PNU-120596 set to 100%
Procedure: The nicotinic acetylcholine receptor α7 is a calcium-permeable ion channel, whose activity can be measured by over expression in mammalian cells or oocytes. […] Activation of the channel was measured by loading cells with the calcium-sensitive fluorescent dye. Calcium-4 (Assay kit from Molecular Devices), and then measuring real-time changes, in fluorescence upon treatment with test compounds. […] Results were calculated as % modulation of test compound compared to the reference PNU-120596 set to 100%.
PROPERTY_MEASURED: pEC50
Entry type: numeric. Quantity: pEC50, the -log10 of concentration in molar units.

Past entries and their recorded results:
COMPOUND	TARGET_OR_SYSTEM	pEC50
COc1ccc(-n2ncc3c(C(=O)Nc4c(C)ccnc4C)cc(C)nc32)cc1 [Compound 11]	human α7 receptor (Homo sapiens)	5.55
Cc1cc(C(=O)Nc2c(C)cncc2C)c2c(C)nn(-c3ccccc3)c2n1 [Compound 3]	human α7 receptor (Homo sapiens)	5.39
COc1ccc(-n2nc(C)c3c(C(=O)Nc4cccnc4C)cc(C)nc32)cc1 [Compound 5]	human α7 receptor (Homo sapiens)	5.48

Q: // pEC50 lookup, key: Cc1ccc(-n2nc(C)c3c(C(=O)Nc4c(C)ccnc4C)cc(C)nc32)cn1 [Compound 10]
Ans: 5.14

Q: Similarly, Cc1cc(C(=O)Nc2c(C)ccnc2C)c2c(C)nn(-c3ccc(OC(F)F)cc3)c2n1 [Compound 19] ?
Ans: 5.48

Q: Similarly, COc1cccc(-n2nc(C)c3c(C(=O)Nc4c(C)ccnc4C)cc(C)nc32)c1 [Compound 9] ?
Ans: 5.40

Q: Similarly, COc1ccc(-n2nc(C)c3c(C(=O)Nc4cnc(C)cc4C)cc(C)nc32)cc1 [Compound 33] ?
Ans: 5.05

Q: Similarly, COc1ccc(-n2nc(C)c3c(C(=O)Nc4cnccc4N(C)C)cc(C)nc32)cc1 [Compound 30] ?
Ans: 5.57

Q: Similarly, Cc1cc(C(=O)Nc2c(C)ccnc2C)c2c(C)nn(-c3ccsc3)c2n1 [Compound 25] ?
Ans: 5.14
